- subjectOfTest: Recombinant SARS-CoV-2 3CL Protease (Severe acute respiratory syndrome coronavirus 2 (2019-nCoV) (SARS-CoV-2))
- protocolDetails: biochemical
- Assay type: biochemical
- settings: 50% SARS-CoV-2 3CL protease inhibitory concentration; read-out: IC50
Item-by-item account of IC50

// known answers, use as guide
{"compound": "N#CCn1c(N2CC[C@H](C(=O)N3CC(F)(F)C3)C2)c(-c2ccc(F)c(Cl)c2)c(=O)n(-c2cncc(Cl)c2)c1=O", "reading": "< 10 nM"}
{"compound": "N#CCn1c(N2CCC(F)(F)CC2)c(-c2ccc(F)c(Cl)c2)c(=O)n(-c2cncc(C#N)c2)c1=O", "reading": "< 10 nM"}
{"compound": "N#CCn1c(N2CC3(C2)CC(F)(F)C3)c(-c2ccc(F)c(Cl)c2)c(=O)n(-c2cncc(Br)c2)c1=O", "reading": "< 10 nM"}
{"compound": "Cc1cncc(-n2c(=O)c(Cc3cc(F)c(F)c(F)c3)c(-c3ccc(C)c(C)c3)n(C(C)(C)C#N)c2=O)c1", "reading": "< 10 nM"}
{"compound": "CCCCc1c(N2CC3(CCOC3)C2)n(CC#N)c(=O)n(-c2cncc(Cl)c2)c1=O", "reading": "10 to 100 nM"}

Problem: Entry N#CCn1c(N2CC[C@@](O)(C(F)F)C2)c(-c2ccc(F)c(Cl)c2)c(=O)n(-c2cncc(Cl)c2)c1=O (single isomer, unassigned) needs its IC50 filled in; supply it.
Solution: 0.97 nM

This collection of values is drawn from patent US20250092056A1.
